# subjectOfTest: UniProt:Q6N021

[
  {
    "inputSmiles": "Nc1nc(=O)n(-c2ccccc2)cc1Cl",
    "IC50 / µM": 98
  }
]
